Tested on: OVCAR-3 ovarian
ASSAY INFO: NCI-60 one-dose screen, 48 h (100 = growth as untreated, 0 = no growth, -100 = all killed)
PARTICULARS: 10 µM
About 83,000 compounds went through this panel and 20% of them were active in at least one assay; those are over-represented in the sample as a whole.
Class Satisfied: growth at least -50%. Class Not satisfied: growth below -50%.

Example results:
CCC[Se]C(=O)c1ccc(C(=O)[Se]CCC)s1 = Satisfied
O=C(/C=C/c1ccc(Cl)cc1Cl)c1nc2ccccc2n1Cc1ccc(Br)cc1 = Satisfied
COc1ccc(OC)c(/C=C/C(=O)c2nc3ccccc3n2Cc2ccc(F)cc2)c1 = Satisfied
CC[C@]12C=CCN3CC[C@@]4(c5ccc(OC)cc5N(C)[C@H]4[C@@](O)(C(=O)OC)[C@@H]1OC(=O)CCCC[P+](c1ccc(OC)cc1)(c1ccc(OC)cc1)c1ccc(OC)cc1)[C@@H]32 = Not satisfied
CC(=C\C(=O)Oc1ccc2c3c1OC1C(O)CCC4(O)C(C2)N(CC2CCC2)CCC314)/C=C1\CCCc2ccccc21 (stereo not drawn) = Satisfied

Exercise: API: above_or_equal(metric=growth, cutoff=-50%) for item O=C(/C=C/c1ccc(Br)cc1)c1nc2ccccc2n1Cc1ccc(Br)cc1
Solution: Satisfied

Exercise: API: above_or_equal(metric=growth, cutoff=-50%) for item COC(=O)C[C@](O)(CCC(C)C)C(=O)O[C@H]1C(OC)=C[C@@]23CCCN2CCc2cc4c(cc2[C@@H]13)OCO4
Solution: Satisfied

Exercise: API: above_or_equal(metric=growth, cutoff=-50%) for item CC12OOC(C)(OO1)C2CCC(=O)OCCNc1ccnc2cc(Cl)ccc12 (stereo not drawn)
Solution: Not satisfied
